// data source = PubChem BioAssay (NCI)

Test system: NCI-H322M lung
Assay: NCI-60 one-dose screen, 48 h (100 = growth as untreated, 0 = no growth, -100 = all killed)
Conditions: 10 µM unless noted
This is part of a sample that, as a whole, favours compounds with a hit. Of some 83,000 tested, about 20% had one in any assay.
reported metric: growth (%)

1) C=C(C)[C@@H]1CC[C@]2(COP(=O)(OCC)OCC)CC[C@]3(C)[C@H](CC[C@@H]4[C@@]5(C)CCCNC(C)(C)[C@@H]5CC[C@]43C)[C@@H]12
84.7
2) CCO/C=N/C1=C(C#N)C(c2ccc(F)cc2)c2sc3c(CC)cccc3c2O1 (stereo unspecified)
42.6
3) FC(F)(F)c1cc(Nc2cccc(Oc3ccc(NC4=NCCN4)nc3)c2)ccc1Cl
-3.79
4) COc1ccc(-c2nc(C(Cl)Cl)nc3cc(-c4ccccc4)nn23)cc1
-33.8
5) CC1(C)[C@@H](O)CC[C@]2(C)[C@H]3CC[C@@H]4[C@H]5[C@H](C(=O)/C=C\c6ccc([N+](=O)[O-])cc6)CC[C@]5(O)CC[C@@]4(C)[C@]3(C)CC[C@@H]12
90.8
6) Cc1ccc(-c2nnc(SCc3ccc(O)c4ncccc34)o2)cc1
26.3
7) Cc1ccc2c(c1)C13C(=C2Br)CCCN1C(=O)c1ccccc13 (stereo unspecified)
97.5
8) CC1(C)[C@@H](O)CC[C@]2(C)[C@H]3CC[C@@H]4[C@H]5[C@H](C(=O)/C=C\c6ccccn6)CC[C@]5(O)CC[C@@]4(C)[C@]3(C)CC[C@@H]12
84.3
9) COc1ccc2c(c1)c(CC(=O)[Se]CCC#N)c(C)n2C(=O)c1ccc(Cl)cc1
-3.57
10) NS(=O)(=O)c1ccc(-n2cc(CN3CCNCC3)nn2)cc1
113
11) CNC(=O)c1cc(-c2ccc(NS(=O)(=O)c3ccc(C)cc3)cc2)nc2cccnc12
110
12) Cc1ccc(-c2nn(-c3ccccc3)cc2/C=C/C(=O)c2ccc(NC(=O)CCCCCCC(=O)NO)cc2)cc1
83.9
13) CCn1c(SCC(=O)Nc2cccc(C(=O)/C=C/c3ccc(C)cc3)c2)nc2ccccc2c1=O
86.7
14) CC(=O)c1ccc(Nc2nc(SCC(C)C)nc(-c3ccc(F)cc3)c2C#N)cc1
116
15) CC(C)(C)c1ccc(C(=O)Nc2nc3ccc(O)cc3s2)cc1
54.8
16) Nc1nc(Nc2ccccc2SSc2ccccc2Nc2nc(N)nc(-c3ccccc3)n2)nc(-c2ccccc2)n1
92.4
17) COc1ccc2c(c1)c(CC(=O)[Se]CC#N)c(C)n2C(=O)c1ccc(Cl)cc1
-1.05
18) CN1CCN(c2ccc(/C=N/n3cnc4oc(-c5ccccc5)cc4c3=N)cc2)CC1
91.1
19) Nc1ncc(-c2ccc3ncnc(N4CCc5cc(F)c(Cl)cc54)c3c2)cn1
23
20) N#Cc1cnc2ccc(-c3cnc(N)nc3)cc2c1N1CCc2cc(F)c(Cl)cc21
10
21) CN1CCN(Cc2ccc(NC(=O)c3cncc(C#Cc4cnc5ccc(N6CCN(C)CC6)nn45)c3)cc2C(F)(F)F)CC1
35.5
22) CCOC(=O)c1c(N)c(C#N)cn1-c1cc(OC)c(OC)c(OC)c1
101
23) NC(N)=Nc1ccc(Oc2cccc(NC(N)=Nc3ccc(I)cc3F)c2)cc1
80.4
24) COc1ccc(C(=O)CSc2nc3c(c(Nc4ccc(S(N)(=O)=O)cc4)n2)CCCC3)cc1
107
25) NC(N)=Nc1ccc(Oc2cccc(NC(N)=Nc3ccc(Br)c(C(F)(F)F)c3)c2)cc1
57.8
26) O=C(NNc1nc2cc(F)ccc2n2c(CN3CCC(O)C3)ccc12)c1cnccn1 (stereo unspecified)
24.8
27) CC1(C)CC[C@]2(C(=O)N3CCOCC3)CC[C@]3(C)C(=CC[C@@H]4[C@@]5(C)C/C(=C/c6ccccn6)C(=O)C(C)(C)[C@@H]5CC[C@]43C)[C@@H]2C1
103
28) CC(=O)N1N=C(c2cccc(-n3cccc3)c2)CC1c1cccc(F)c1 (stereo unspecified)
90.3
29) Nc1cc(-c2c[nH]c3ccc(Br)cc23)nc2cc(-c3c[nH]c4ccc(Br)cc34)nn12
39.8
30) CC(=O)c1cc(C(=O)c2ccc(Br)cc2)n2cc(C)cc(C)c12
100
31) O=C(NNc1nc2cc(F)c(F)cc2n2c(CN3CC4CNCC4C3)ccc12)c1ncccn1 (stereo unspecified)
27.8
32) CCOC(=O)c1c(Nc2ccccc2)nn2c(-c3cccs3)ccnc12
94.4
33) COc1cc(/C=C/C(=O)c2ccc(NC(=O)CSc3nnc(-c4ccc(-c5nc6ccc(Cl)cc6[nH]5)cc4)o3)cc2)cc(OC)c1OC
99.6
34) CC(C)(C)CC(C)(C)n1nnnc1C(Nc1nccs1)c1cc2cccc3ccc4cccc1c4c32 (stereo unspecified)
93.9
35) O=C(Nc1nc2ccc([N+](=O)[O-])cc2s1)Nc1ccccc1Cl
52.2
36) O=C1CC(=O)N2CSCN(C(c3ccccc3)c3nc4ncncc4[nH]3)C2=N1 (stereo unspecified)
106
